- EXPERIMENT: soluble on expression in E. coli; label from the status in PepcDB or PDB records

- SEQUENCE_DATA: "MKRYISIKGIGTYLPKRKVDSLEIDQMLDVPEGWTLKKAGVKTRYFVDGETSSYMGAEAAKKAVEDAKLTWDDIDCIICGSGTIQQAIPSTASLIQEQLGLQHSGIPCFDINSTCLSFITALDTISYAIECGRYKNVVIISSEISSVGLNWGQNESSILFGDGAAAVVITKGDHSSSIIASHMETYSSGAHLSEIRGGGTMIHPREYSEERKEDFLFDMNGRAIFKLSSKYLMKFIDKLLMDTGYSLADIDLIVPHQASGPAMRLIRKKLGVDEERFMTIFEDYGNMISASIPVALFEAIKQKKVQRGNKILLLGTSAGLSIGGILLEY"
  soluble on expression in E. coli: "not soluble"
- SEQUENCE_DATA: "MLFFSSAMSKHKLTFTKLSDCMKYLDLAATWAEEEWGYIRNKGLEFRKKILSDLKEHTYIGTFNGQPIAMFVLFDKEMSPEFNHGRFKPPVVNELMYVYIDKPYRGLGFGKQIIDEAKQLASDSKSEYIMLDTLKPGLNRFYEKSGAKVIAENQLFSHPTDVLTIKI"
  soluble on expression in E. coli: "not soluble"
